Listed molecules paired with reported pIC50
system_name: Voltage-dependent calcium channel alpha2delta subunit (Sus scrofa, UniProt O77773)
Sequence (O77773 whole entry): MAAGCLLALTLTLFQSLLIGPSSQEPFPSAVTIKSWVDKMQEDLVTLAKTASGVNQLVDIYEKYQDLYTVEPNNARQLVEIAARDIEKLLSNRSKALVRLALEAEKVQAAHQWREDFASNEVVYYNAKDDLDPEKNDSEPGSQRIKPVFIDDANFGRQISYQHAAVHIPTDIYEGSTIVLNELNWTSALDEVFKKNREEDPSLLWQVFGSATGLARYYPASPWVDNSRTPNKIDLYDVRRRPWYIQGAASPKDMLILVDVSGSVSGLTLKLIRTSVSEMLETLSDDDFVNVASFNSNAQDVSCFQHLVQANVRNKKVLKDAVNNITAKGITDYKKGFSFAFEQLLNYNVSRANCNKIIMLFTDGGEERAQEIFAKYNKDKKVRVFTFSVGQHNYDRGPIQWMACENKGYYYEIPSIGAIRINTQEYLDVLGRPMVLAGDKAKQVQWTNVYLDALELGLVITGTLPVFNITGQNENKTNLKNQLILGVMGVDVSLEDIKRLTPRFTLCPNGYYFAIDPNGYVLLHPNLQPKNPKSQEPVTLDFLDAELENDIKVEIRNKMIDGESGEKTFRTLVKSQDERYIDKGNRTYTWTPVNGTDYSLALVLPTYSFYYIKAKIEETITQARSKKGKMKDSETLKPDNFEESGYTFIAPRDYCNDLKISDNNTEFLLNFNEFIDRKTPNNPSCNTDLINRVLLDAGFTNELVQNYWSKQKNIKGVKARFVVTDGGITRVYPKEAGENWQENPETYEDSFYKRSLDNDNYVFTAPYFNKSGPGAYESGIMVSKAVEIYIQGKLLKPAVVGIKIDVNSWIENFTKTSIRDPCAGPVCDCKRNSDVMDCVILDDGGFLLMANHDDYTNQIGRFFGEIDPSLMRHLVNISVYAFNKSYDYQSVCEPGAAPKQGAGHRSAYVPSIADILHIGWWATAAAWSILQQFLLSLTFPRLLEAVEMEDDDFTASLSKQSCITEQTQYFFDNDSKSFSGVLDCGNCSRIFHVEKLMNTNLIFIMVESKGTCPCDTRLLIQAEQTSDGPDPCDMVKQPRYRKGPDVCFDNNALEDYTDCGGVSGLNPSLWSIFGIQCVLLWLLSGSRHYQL
protocol_description: Displacement of [3H]gabapentin from calcium channel alpha2delta in pig cerebral cortex membrane after 30 mins
In textbook form, pIC50 equals minus log to base ten of the concentration in mol/L.

[[record]]
molecule = "CC[C@@H]1CCC(CN)(CC(=O)O)C1 (some centres not stated)"
metric_name = "pIC50"
assay_result = 7.28


Look up pIC50: CCC[C@@H]1CCC(CN)(CC(=O)O)C1 (some centres not stated)
7.54

Another molecule to look at: "C[C@@H]1CC[C@@](CN)(CC(=O)O)C1"
7.15

Please give the result for CC1(C)CCC(CN)(CC(=O)O)C1 (configuration not stated) too.
5.50

Next record, please: "C[C@@H]1CC[C@](CN)(CC(=O)O)C1"
7.52

Also "NCC1(CC(=O)O)CCCC1" , if possible.
6.38

Cool, now CCC1CCC(CN)(CC(=O)O)C1 (mixture of isomers)
7.26

* * *

system_name: Voltage-dependent calcium channel alpha2delta subunit (Sus scrofa)
protocol_description: Displacement of [3H]gabapentin from calcium channel alpha2delta in pig cerebral cortex membrane after 30 mins
IC50 values for the molecules below.

[[record]]
molecule = "CCC[C@H]1CCC(CN)(CC(=O)O)C1 (single isomer, unassigned)"
metric_name = "IC50"
assay_result = "1200 nM"


Turning now to a further record.
Consider the molecule shown here: CC1CCC(CN)(CC(=O)O)C1 (mixture of isomers) What is its recorded IC50?
82 nM

* * *

system_name: Voltage-dependent calcium channel alpha2delta subunit (Sus scrofa)
protocol_description: Displacement of [3H]gabapentin from calcium channel alpha2delta in pig cerebral cortex membrane after 30 mins
Quick reference: IC50 of the listed items.
Your answer should be a plain number; it is taken to be in nM.

[[record]]
molecule = "C[C@@H]1CCC(CN)(CC(=O)O)C1 (stereo not given in full)"
system_name = "Voltage-dependent calcium channel alpha2delta subunit (Sus scrofa)"
metric_name = "IC50"
assay_result = 88


What does the record list as IC50 for C[C@H]1CCC(CN)(CC(=O)O)C1 (single isomer, unassigned) ?
1300

Query NCC1(CC(=O)O)CCC(CCc2ccccc2)C1 (mixture of isomers) next
6230

Check CC[C@H]1CCC(CN)(CC(=O)O)C1 (stereo not given in full) too.
706

Moving on to NCC1(CC(=O)O)CCC(c2ccccc2)C1 (mixture of isomers)
5060

What do we get for NCC1(CC(=O)O)CCC(Cc2ccccc2)C1 (mixture of isomers) ?
9280

Thanks! And CCCCC1CCC(CN)(CC(=O)O)C1 (mixture of isomers) ?
690

Next up: CCCC1CCC(CN)(CC(=O)O)C1 (mixture of isomers)
69

Then what about the molecule CC(C)CC1CCC(CN)(CC(=O)O)C1 (mixture of isomers) ?
760
